The reported numbers originate from ChEMBL document CHEMBL4837253.

Below, each of the molecules is paired with its reported pEC50 value.
# MEASURED_ON: Arginase-1 (Homo sapiens, UniProt P05089)
# Sequence (P05089 whole entry): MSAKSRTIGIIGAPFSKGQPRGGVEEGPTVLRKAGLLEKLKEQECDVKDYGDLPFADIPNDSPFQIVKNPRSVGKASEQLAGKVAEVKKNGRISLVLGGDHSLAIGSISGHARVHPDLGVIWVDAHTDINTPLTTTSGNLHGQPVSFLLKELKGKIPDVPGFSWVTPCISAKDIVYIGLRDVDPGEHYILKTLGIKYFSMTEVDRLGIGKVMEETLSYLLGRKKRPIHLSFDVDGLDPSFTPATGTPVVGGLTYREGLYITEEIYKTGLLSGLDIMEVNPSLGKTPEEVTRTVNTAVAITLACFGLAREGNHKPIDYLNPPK
# EXPERIMENTAL_DETAILS: Inhibition of human ARG1 in HEK293 cells by cell based assay
pEC50 is defined as minus the log10 of a concentration measured in mol/L.

Sample records with pEC50:
O=C(O)[C@H]1NCC[C@H]1CCCB(O)O 5.47
NC[C@@H]1C[C@@H](CCCB(O)O)[C@@H](C(=O)O)N1 4.80

// pEC50 lookup, key: "O=C(O)[C@H]1NC[C@H](O)[C@H]1CCCB(O)O"
5.16

Let us now turn to "C[C@@H]1C[C@@H](CCCB(O)O)[C@@H](C(=O)O)N1"
5.55

Let us now turn to "O=C(O)[C@H]1NCC[C@@]1(CO)CCCB(O)O"
4.96

Let us now turn to "O=C(O)[C@H]1N[C@H](CO)C[C@H]1CCCB(O)O"
5.38

Let us now turn to "N[C@H]1CN[C@H](C(=O)O)[C@@H]1CCCB(O)O"
4.70
